# Tested on: HOP-62 NSCLC
# assayMethodText: NCI-60 one-dose screen, 48 h (100 = growth as untreated, 0 = no growth, -100 = all killed)
# conditionInfo: 10 µM unless noted
About 83,000 compounds went through this panel and 20% of them were active in at least one assay; those are over-represented in the sample as a whole.
Use 50% as the dividing line for growth, with the line itself on the condition met side and lower values as condition not met.

Check if growth >= 50% (inclusive). Item: O=C(c1ccc(O)cc1)C1[C@H](c2ccccc2Br)[C@@H](c2ccccc2)NC12C(=O)Nc1ccccc12 (stereo partly drawn)
condition met

Determine whether this molecule has growth no lower than 50%: `Cc1ccc(N=Nc2c(N)nn3c(-c4cc5cc(Br)ccc5oc4=O)ccnc23)cc1`
condition not met

Given `NNc1ncnc2sc3c(c12)CCN(Cc1ccccc1)C3` , state whether its growth is at least 50%.
condition met

Determine whether measured growth meets or exceeds 50% for `COc1ccc(N=Nc2c(N)nn3c(N)c(C#N)c(-c4ccccc4)nc23)cc1`
condition not met

# bool: growth of `CC[C@]12C=CCN3CC[C@@]4(c5ccc(OC)cc5N(C)[C@H]4[C@@](O)(C(=O)OC)[C@@H]1OC(=O)CCC[P+](c1ccc(OC)cc1)(c1ccc(OC)cc1)c1ccc(OC)cc1)[C@@H]32` >= 50%
condition not met

Hi team, for `C[C@@H]1CN(c2ccc3ncc(C#Cc4cncc(C(=O)Nc5ccc(CN6CCN(C)CC6)c(C(F)(F)F)c5)c4)n3n2)C[C@@H](C)O1` , is the recorded growth at or above 50%?
condition not met

Could you please find out whether OC1CCC(Cn2c(C(F)(F)F)cc3c(Cl)ncnc32)CC1 (stereo not drawn) has growth that meets 50% or exceeds it?
condition not met

Please tell me: is the molecule `O=C(CSc1nc2sc3c(c2c(=O)n1-c1ccc(Cl)cc1)CCCC3)N/N=C/C=C/c1ccccc1` at or over 50% in terms of growth?
condition not met

====

# Test system: HS 578T breast
# assayMethodText: NCI-60 one-dose screen, 48 h
# conditionInfo: 10 µM unless noted
The panel holds about 83,000 compounds, 20% with a hit somewhere; the sample as a whole holds those more often. Active and inactive are the calls of the source. The calls were made as follows: active = growth percent below 10; inactive = the rest.
// allowed return values: t = active, f = inactive

What did the test return for `O=C(NN1C(=O)/C(=C/C=C/c2ccc([N+](=O)[O-])o2)SC1=S)c1ccc([N+](=O)[O-])cc1` ?
t

Please state the recorded outcome for this compound: `COc1ccc(S(=O)(=O)Nc2ccc(-c3ccc4c(c3)NC(=O)/C4=C\c3ccc[nH]3)cc2)cc1OC`
f

Which outcome did this test record for the compound `Fc1ccc(Nc2nnc(-c3c[nH]c4ccccc34)o2)cc1` ?
f

// outcome(item) with item = `FC(F)(F)c1cc2c(Cl)ncnc2n1CCN1CCCCC1`
f

Write down the call the test reported for this compound. Item: `O=C(Nc1ccc(S(=O)(=O)N2CCCCC2)cc1)C(Cl)Cl`
f

====

# Test system: MALME-3M melanoma
# assayMethodText: NCI-60 one-dose screen, 48 h
# conditionInfo: 10 µM unless noted
This is part of a sample that, as a whole, favours compounds with a hit. Of some 83,000 tested, about 20% had one in any assay. Active and inactive are the calls of the source. How the source made its calls: active means growth percent below 10; inactive means the rest.
Returns: one label drawn from true (1) = active, false (0) = inactive

Test call for this compound, please: `O=C1c2cccc3c(N4CCN(Cc5ccccc5)CC4)ccc(c23)C(=O)N1c1cccc(-c2nn(-c3ccccc3)cc2-c2nc3ccccc3s2)c1`
false (0)

Called result for `CN1CCN(C(=O)Oc2cc3c(c4ccccc24)[C@H](CCl)CN3C(=O)c2cc3cc(OCCCN4CCC4)ccc3[nH]2)[C@@H]2CSSC[C@H]21`
true (1)

Record lookup: outcome of this test for `OC(c1ccccc1)(c1ccccc1)C1CCN(c2ccc3nnc(Cl)n3n2)CC1` ?
false (0)

Returns: the outcome recorded for CCOC(=O)/C(F)=C/C1CC1CCc1ccc(OCC)cc1 (stereo not drawn) in this assay.
false (0)

# fetch the recorded call for `COC(=O)c1c(C(=O)OC)c2c3ccccc3c3ccccc3n2c1C(=O)C(C)(C)C` here
false (0)

Field: outcome | Entry: `COc1ccc(-c2cc(-c3cc(OC)c(OC)c(OC)c3)[nH]c(=O)c2C#N)cc1`
false (0)

What did the test return for Clc1ccc(CNc2nc(SCCN3CCOCC3)nc3c2cnn3CC(Cl)c2ccc(Br)cc2)cc1 (stereo not drawn) ?
true (1)

What classification did O=C(OCCOCCO)N(c1cccc(Br)c1)c1nc(SCCN2CCOCC2)nc2c1cnn2CC(Cl)c1ccc(Br)cc1 (stereo not drawn) end up with in this test?
true (1)

Per the records of this test, what outcome belongs to `COc1sc(/C=N/NC(=O)c2[nH]c3ccc(Br)cc3c2-c2ccccc2)cc1Cl` ?
false (0)

Any idea what this test logged for `N#CCc1nnc(NC(=O)c2ccc(-n3c(=O)[nH]c4ccccc4c3=O)cc2)s1` ?
false (0)

Recorded call for `COc1cc(/C=C/C(=O)c2cnn(-c3cc(=O)[nH]c4ccccc34)c2C)cc(OC)c1OC` ?
false (0)

Entry `Clc1ccc(Nc2nnc(-c3c[nH]c4ccccc34)o2)cc1` : call = ?
false (0)

Query: recorded result category for `N/C(=N\c1nc2ccccc2s1)NC(=O)Nc1ccccc1F` in this test
false (0)

Please share the test call associated with `CCCCNC(=S)Nc1ccc(OCc2nc3ccc(Cl)cc3[nH]2)cc1` .
false (0)

So what was the verdict on `O=C1Nc2ccc(F)cc2/C1=C/C(=O)c1cc2ccccc2oc1=O` in this test?
false (0)

// outcome(item) with item = `CC[C@]12C=CCN3CC[C@@]4(c5ccc(OC)cc5N(C)[C@H]4[C@@](O)(C(=O)OC)[C@@H]1OC(=O)CCCC[P+](c1ccc(F)cc1)(c1ccc(F)cc1)c1ccc(F)cc1)[C@@H]32`
true (1)

Called result for `Cc1ccc(NC(=O)N/N=C/c2c[nH]c3ccccc23)c(C)c1`
false (0)

Tell me the recorded outcome of this test for `Cc1ccc(C(=O)Nc2cc(-n3cnc(F)c3)cc(C(F)(F)F)c2)cc1C#Cc1cnc2cccnn12` .
true (1)

====

# Test system: RXF 393 renal
# assayMethodText: NCI-60 one-dose screen, 48 h
# conditionInfo: 10 µM unless noted
The panel holds about 83,000 compounds, 20% with a hit somewhere; the sample as a whole holds those more often. The source made the active and inactive calls. How the source made its calls: active means growth percent below 10; inactive means the rest.
// allowed return values: y = active, n = inactive

Fill in: this test's call for `COc1ccc2ccccc2c1/C=C1\SC(=Nc2ccc(O)cc2)NC1=O` is ___
y

What did the test return for `COc1ccc2[nH]c(O)c(N=Nc3nc(-c4ccc(Br)cc4)cs3)c2c1` ?
y

Tell me the recorded outcome of this test for `O=C1Nc2ccc(F)cc2/C1=C/C(=O)c1cc2ccccc2oc1=O` .
n

Recorded call for COC(=O)c1c(C(=O)OC)c2ccc3c4ccccc4ccc3n2c1C(=O)C(C)Br (centres undefined) ?
n

Could you kindly confirm the outcome this assay logged for Oc1ccc(F)c(Nc2nc(SCCN3CCOCC3)nc3c2cnn3CC(Cl)c2ccc(Br)cc2)c1 (centres undefined) ?
y

Short answer needed: outcome of this test for `N/C(=N\c1nc2ccccc2s1)NC(=O)Nc1ccccc1[N+](=O)[O-]` ?
n

Per the records of this test, what outcome belongs to O=C(O)CC1S/C(=N/N=C/c2nc3ccccc3s2)NC1=O (centres undefined) ?
n

Tell me the recorded outcome of this test for `O=C(CSc1nnc(-c2ccc(-c3nc4ccccc4[nH]3)cc2)o1)Nc1ccc(Cl)cc1` .
y

Outcome? `C[C@@H](Nc1c(C#N)cnc2ccc(-c3cnc4[nH]ncc4c3)cc12)c1ccccc1`
y

Each compound tested received a call. Report the one for `Fc1ccc(Nc2nnc(-c3c[nH]c4ccccc34)o2)cc1` .
n

Lab log entry: `C=CC(=O)N1CCN(c2ccc3nc4c(nc3c2C(F)(F)F)C(=O)c2ncccc2C4=O)CC1` — outcome as called in the assay?
n

Look up the recorded call for `CC(C)C[C@H](NC(=O)CNC(=O)C[C@H]1O[C@@H]2OC3(C)CC[C@H]4[C@H](C)CC[C@@H]([C@H]1C)[C@@]24O3)B(O)O` in this test.
y

Field: outcome | Entry: `O=C(Cn1c(-c2ccccc2)nc2ccccc21)N=Nc1c(O)[nH]c2ccc(Br)cc12`
y

Dear colleague, could you share the recorded outcome for `Cc1ccc(S(=O)(=O)N(CCn2ccnc2[N+](=O)[O-])CCn2ccnc2[N+](=O)[O-])cc1` when you have a moment?
n

Assay outcome for `Nc1cc(-c2c[nH]c3ccc(Br)cc23)nc2cc(-c3c[nH]c4ccccc34)nn12` : what was it?
y

Would you mind telling me which call this test gave Oc1ccc(Cl)c(Nc2nc(SCCN3CCOCC3)nc3c2cnn3CC(Cl)c2ccc(Br)cc2)c1 (centres undefined) ?
y

Status in this test for `COc1ccc(N=Nc2c(N)nn3c(-c4ccc(OC)c(OC)c4)ccnc23)cc1` ?
n

Which result was noted for this compound in the test: `CN(C)c1ccc(/C=C/c2n(Cc3ccc4ccccc4c3)c3ccccc3[n+]2Cc2ccc3ccccc3c2)cc1`
y

Each compound tested received a call. Report the one for `C#CCN(C)CCCOc1ccc(N(CC)C(=O)c2cc(C(C)C)c(O)cc2O)cc1Cl` .
y
